# experimental.target: T1, biotin-labeled human CD137 fused to human IgG1 Fc fragment (human, biotin-labeled)
# T1 construct: Immobilised on streptavidin beads through biotin; also called human CD137-Fc; biotin-human CD137-Fc
# assay.name: competitive bead ELISA, decrease of signal on biotin-human CD137-Fc with 125 pmol/well free CD3 epsilon peptide against 0
observation.type: Signal decrease

Using the record for dBBDu196 (antibody, human IgG1, V domains shown, IgG: VH joined to human IgG1 CH1-Fc, GLS3000 as light chain) VH: QVQLVESGGGLVQPGRSLRLSCAASGFTFSNAWMHWVRQAPGKGLEWVAQIKDRGNAYNAYYAESVKGRFTISRDDSKNSIYLQMNSLKTEDTAVYYCHYVHYASASTVLPAFGVDAWGQGTTVTVSS VL: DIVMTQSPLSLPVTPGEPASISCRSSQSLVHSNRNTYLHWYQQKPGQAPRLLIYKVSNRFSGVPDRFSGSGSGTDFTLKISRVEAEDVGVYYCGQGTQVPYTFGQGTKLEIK , report its Signal decrease.
93.3%

Then this binder:
Using the record for dBBDu167 (antibody, human IgG1, V domains shown, IgG: VH joined to human IgG1 CH1-Fc, GLS3000 as light chain) VH: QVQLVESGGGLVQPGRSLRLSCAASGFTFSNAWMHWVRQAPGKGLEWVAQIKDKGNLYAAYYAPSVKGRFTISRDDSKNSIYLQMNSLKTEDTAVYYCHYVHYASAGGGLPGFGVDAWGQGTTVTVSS VL: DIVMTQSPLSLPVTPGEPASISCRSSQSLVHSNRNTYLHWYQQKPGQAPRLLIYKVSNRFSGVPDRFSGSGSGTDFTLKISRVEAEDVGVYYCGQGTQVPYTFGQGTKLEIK , report its Signal decrease.
92.5%
